tested on: MDA-N; assay: NCI tumour cell line growth inhibition, 48 h
Assignment: determine reported TGI for the given molecules.

Reference set, count: 5
molecule="CC1=NN(c2ccc(C)cc2)C2(C1)SCC(=O)N2c1nc2ccccc2s1 (stereo unspecified)" property=TGI observedvalue="70.2 µM"
molecule="COc1ccc(C2CC(c3c(C)nn(-c4ccccc4)c3-c3ccc(C)cc3O)=NN2c2ccccc2)cc1 (stereo unspecified)" property=TGI observedvalue="> 100 µM"
molecule="O=C1c2cc(Cl)ccc2-n2c(noc2=O)C2CSCN12 (stereo unspecified)" property=TGI observedvalue="> 100 µM"
molecule=CC1(C)CC(=O)C(/C=N/c2nc(-c3ccc(Br)cc3)cs2)=C(O)C1 property=TGI observedvalue="> 100 µM"
molecule="C=C(CCOC)CCC1CCCCC(=C)C1=O (stereo unspecified)" property=TGI observedvalue="> 100 µM"

Please look at the following molecule next.
Per the record, `COc1cc(C(=O)Nc2nnc(S(N)(=O)=O)s2)cc(OC)c1OC` has TGI of > 100 µM

* * *

test system: HOP-62 NSCLC; assay: NCI tumour cell line growth inhibition, 48 h
Where a SMILES comes first, the peptide text is derived from it. [ ]: non-standard residue; d: D form. The star is where a group is joined. ξ: configuration not given here. NMeY = CN[C@@H](Cc1ccc(O)cc1)C(=O)O; Cbz = O=C(OCc1ccccc1)*; ξA = CC(N)C(=O)O
property: TGI

Reference set, count: 3
compound=CCOP(=O)(OCC)/C(C#N)=C\c1cccc2ccccc12 experimentaltarget="HOP-62 NSCLC" property=TGI observedvalue="> 100 µM"
compound="NC(Cc1nn[nH]n1)C(=O)O (stereo unspecified)" experimentaltarget="HOP-62 NSCLC" property=TGI observedvalue="> 100 µM"
compound=COc1ccc2cccc(C(=N)c3ccc(C)c4c3CCC4)c2c1 experimentaltarget="HOP-62 NSCLC" property=TGI observedvalue="20 µM"

For the 5 compounds below, give their TGI values.
1. COc1ccc(C(=O)Cc2cc(OC)ccc2OC)cc1
2. COc1ccc(/C=N/Nc2[nH]c(=S)nc3[nH]ncc23)cc1
3. COc1ccc(C[C@@H](C(=O)NCC(N)=O)N(C)C(=O)[C@@H]2CCCN2C(=O)[C@H](CC(C)C)NC(=O)C(C)NC(=O)OCc2ccccc2)cc1 (stereo partly specified) (Cbz-[ξA]LP[NMeY](Me)G-NH2)
4. CC(CS(=O)(=O)Cc1ccccc1)C(N)=O (stereo unspecified)
5. c1ccc2c(c1)CC1c3[nH]c4ccccc4c3CCN21 (stereo unspecified)

1. > 100 µM
2. 77.9 µM
3. > 100 µM
4. > 100 µM
5. > 10 µM

* * *

test system: SN12C renal; test: NCI tumour cell line growth inhibition, 48 h
property: TGI

For the 2 molecules below, give their TGI values.
1. COC(=O)/C(C#N)=C1\N=NNN1CCCN1CCOCC1
2. O=C(Nc1cccc2nsnc12)c1cc2c(cc1Cl)Sc1nccn1S2(=O)=O

["> 100 µM", "31.1 µM"]

For the 5 molecules below, give their TGI values.
1. CC1OC(=O)N(CCCC=C2SCCCS2)C1=O (stereo not drawn)
2. Cc1[nH]c(=O)nc(N/N=C/c2ccc(Cl)c(Cl)c2)c1C(=O)Nc1ccc(Cl)c(Cl)c1
3. CCOC(=O)c1cc(-c2ccc(OC)c(OC)c2)c[nH]1
4. C/C(=N\NS(=O)(=O)c1ccc(C)cc1)c1ccc[n+]([O-])n1
5. Cc1ccc(NCSc2ccc(Cl)cc2)cc1

1: > 100 µM; 2: > 46.5 µM; 3: > 10 µM; 4: > 100 µM; 5: > 100 µM

For the 2 molecules below, give their TGI values.
1. C=C1C(=O)O[C@H]2C1[C@H](OC(=O)/C(C)=C\COC(C)=O)C[C@]1(CO1)[C@@H]1[C@H](O)[C@H]3O[C@@]3(C)[C@@H]12 (stereo partly drawn)
2. COC(=O)/C(=N\NC(=O)c1ccccc1O)C(C#N)c1ccc(Cl)cc1 (stereo not drawn)

["> 57.1 µM", "> 100 µM"]

For the 4 molecules below, give their TGI values.
1. CCN(CC)CCC(=O)Nc1ccc(Cn2nnc3c2C(=O)c2nnn(Cc4ccc(NC(=O)CCN(CC)CC)cc4)c2C3=O)cc1
2. CCCCN(CCCC)C(=NCc1ccccc1)NC#N
3. CC(C)(C)OC(=O)NC(Cc1ccccc1)C(=O)N[C@H]1c2ccsc2/C(=N/O)[C@H]1O (stereo partly drawn)
4. CN(C)c1ccc(-c2nc(-c3cc4c(ccc5ccccc54)oc3=O)cs2)cc1

["0.385 µM", "44.4 µM", "> 100 µM", "> 100 µM"]
